Hey, just so you know, these numbers are from PubChem BioAssay AID618.

# Experiment Summary: inhibitors of MT1-MMP promoter transcription, cell-based, luciferase reporter, luminescence (AID 618);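 note: actives suppress MT1-MMP promoter-driven transcription so potencies describe inhibitors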
# Test Settings: MT1-MMP promoter luciferase reporter cells
In all, about 87,000 compounds went through this assay and about 540 (0.62%) were called active. The rule behind the calls is not given here. The list comes from a sample in which actives are over-represented; it also holds close analogues and randomly drawn compounds. Results with a measured potency or affinity are listed apart.
The reply should be one of these categories: active, inactive

Study these solved cases before continuing.
# Molecule, Category Label
data = [
    ("CC(C)NC(=O)c1c2c(nc3ccccc13)CCCC2", "inactive"),
    ("O=C(OCn1ncc(Br)c(Br)c1=O)c1c(F)cccc1F", "active"),
    ("Cc1ccc(C(C)C)c(OCCN)c1", "inactive"),
]

Each molecule tested received a call. Report the one for CSCCC1C(=O)OC2(C)CC(C)(C)NC(=S)N12 (stereo not drawn) .
inactive

Each molecule tested received a call. Report the one for COc1ccc(CCn2c(-n3nc(C)cc3C)nc3c2c(=O)[nH]c(=O)n3C)cc1 .
active
